These measurements were taken from patent US20260242478A1.

# MEASURED_TARGET: T1, Anti-PSMA Fab (SEQ ID NOs: 19, 20)
# T1 construct: Biotinylated and captured on neutravidin coated plates in the phage ELISA; also called 006 PSMA Fab
# MEASUREMENT_NOTES: phage ELISA; biotinylated PSMA Fab captured on neutravidin plate, clonal phage supernatant, anti-M13 HRP detection
Where no end group is shown, it is not given here.
Assignment: determine reported Phage binding ELISA, Anti-PSMA Fab (SEQ ID NOs: 19, 20) signal for the given binders.
Please reply with the number alone, leaving off any unit.

Tell me its Phage binding ELISA, Anti-PSMA Fab (SEQ ID NOs: 19, 20) signal given ENKWCIPTWMCAHE (cysteine pairing not given here; also: displayed on phage, fused to pIII, Clonal phage of the peptide-180 library, tested as crude supernatant; not shown: pIII of the bacteriophage, to which the peptide is fused) [Phage-2173] as the entry. 1.64

Return the recorded Phage binding ELISA, Anti-PSMA Fab (SEQ ID NOs: 19, 20) signal value; entry: EVKLCRPPWMCEIF (Clonal phage of the peptide-180 library, tested as crude supernatant; not shown: pIII of the bacteriophage, to which the peptide is fused) [Phage-2162] 1.66

State, in one line, measured Phage binding ELISA, Anti-PSMA Fab (SEQ ID NOs: 19, 20) signal of YEKWCTPAWMCEYQ (Clonal phage of the peptide-180 library, tested as crude supernatant; not shown: pIII of the bacteriophage, to which the peptide is fused) [Phage-2166] 1.65
